# assayed.system: T1, soluble dimeric FcγRIIB (extracellular domain fused to hinge-CH2-CH3 of human IgG2) (human, UniProt P31994 43-217)
# T1 construct: extracellular domain; also called FcRIIB; FcRIIB-Fc; not shown: human IgG2 hinge-CH2-CH3
# T1 sequence (looked up): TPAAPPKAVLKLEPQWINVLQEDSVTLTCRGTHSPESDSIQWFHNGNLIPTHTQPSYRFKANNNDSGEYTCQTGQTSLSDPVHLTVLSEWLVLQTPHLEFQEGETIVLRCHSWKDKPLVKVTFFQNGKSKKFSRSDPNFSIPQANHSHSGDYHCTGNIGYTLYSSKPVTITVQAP
# measurement.description: ELISA
reported.property: Binding to FcγRIIB (ELISA) (fold increase)
All answers are understood in fold increase, so give the number only.

*Q* Param item = IgG1 Fc mutant K246R, S298N, I377F (antibody) heavy: ASTKGPSVFPLAPSSKSTSGGTAALGCLVKDYFPEPVTVSWNSGALTSGVHTFPAVLQSSGLYSLSSVVTVPSSSLGTQTYICNVNHKPSNTKVDKKVEPKSCDKTHTCPPCPAPELLGGPSVFLFPPRPKDTLMISRTPEVTCVVVDVSHEDPEVKFNWYVDGVEVHNAKTKPREEQYNNTYRVVSVLTVLHQDWLNGKEYKCKVSNKALPAPIEKTISKAKGQPREPQVYTLPPSRDELTKNQVSLTCLVKGFYPSDFAVEWESNGQPENNYKTTPPVLDSDGSFFLYSKLTVDKSRWQQGNVFSCSVMHEALHNHYTQKSLSLSPGK ; retrieve measured Binding to FcγRIIB (ELISA).
*A* 5

*Q* For IgG1 Fc mutant K290T, N390I, P396L (antibody) heavy: ASTKGPSVFPLAPSSKSTSGGTAALGCLVKDYFPEPVTVSWNSGALTSGVHTFPAVLQSSGLYSLSSVVTVPSSSLGTQTYICNVNHKPSNTKVDKKVEPKSCDKTHTCPPCPAPELLGGPSVFLFPPKPKDTLMISRTPEVTCVVVDVSHEDPEVKFNWYVDGVEVHNAKTTPREEQYNSTYRVVSVLTVLHQDWLNGKEYKCKVSNKALPAPIEKTISKAKGQPREPQVYTLPPSRDELTKNQVSLTCLVKGFYPSDIAVEWESNGQPENIYKTTPLVLDSDGSFFLYSKLTVDKSRWQQGNVFSCSVMHEALHNHYTQKSLSLSPGK then?
*A* 6.1
